Reference source for all entries: patent US12637471B2

- test.target: 17β-Hydroxysteroid Dehydrogenase Type 2 Enzyme (17β-HSD2) (Homo sapiens)
- Construct: made in house; host or cells: Sf-9 insect cells (baculovirus)
- Sequence (P37059 1-387): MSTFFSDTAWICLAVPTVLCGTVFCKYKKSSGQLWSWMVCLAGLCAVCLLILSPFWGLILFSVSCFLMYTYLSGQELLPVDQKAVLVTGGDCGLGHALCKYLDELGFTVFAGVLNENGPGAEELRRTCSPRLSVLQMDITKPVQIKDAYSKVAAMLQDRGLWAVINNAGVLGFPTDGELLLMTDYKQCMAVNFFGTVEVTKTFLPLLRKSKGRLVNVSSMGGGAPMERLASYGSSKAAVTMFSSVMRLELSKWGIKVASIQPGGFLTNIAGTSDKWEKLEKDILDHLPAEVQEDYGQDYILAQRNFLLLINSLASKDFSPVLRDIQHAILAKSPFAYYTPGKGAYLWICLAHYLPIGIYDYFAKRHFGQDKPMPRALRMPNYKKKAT
- assay.overview: Inhibition of the 17β-hydroxysteroid dehydrogenase type 2 enzyme, 3H-testosterone conversion
- Assay type: biochemical
- applied.conditions: inhibitor at 10 μM
Listed here are compounds together with their documented inhibition at 10 µM.
Quick note: give the figure in %, leave out the unit.

Example cases with answers are listed next.
> print(dat)
                                   compound      outcome.measure  value.measured
1  COC1CCN(C(=O)N2CCC(=C(C#N)c3ccc(Cl)s3)CC2)CC1  inhibition at 10 µM              27
2  CC(=O)N1CCN(C(=O)N2CCC(=C(C#N)c3cccc(Cl)c3)CC2)CC1  inhibition at 10 µM              11
3  N#CC(=C1CCN(C(=O)N2CCC(S(N)(=O)=O)CC2)CC1)c1cccc(Cl)c1  inhibition at 10 µM              18
4  N#CC(=C1CCN(C(=O)N2CCCC(O)CC2)CC1)c1ccc(F)cc1 (centres unmarked)  inhibition at 10 µM              -1

Lab note: next compound to report on.
The measured inhibition at 10 µM associated with N#CC(=C1CCN(C(=O)N2CCC(O)CC2)CC1)c1ccc(Cl)cn1 reads 4
